# assay.info: in vivo
# reported.conditions: rat, blood; One Hour after oral administration; 50 mg/kg in 5% gum arabic; male wister rats; bioassay
readout: concentration at 1 h

Qu. Provide measured concentration at 1 h value, entry: `COC(=O)/C=C\SC1=C(C(=O)[O-])N2C(=O)[C@@H](NC(=O)/C(=N\O)c3csc(N)n3)[C@H]2SC1.[Na+]`
Ans. 11000 ng/mL

* * *

# assay.info: in vivo
# reported.conditions: rat, blood; Four Hours after oral administration; 50 mg/kg in 5% gum arabic; male wister rats; bioassay
readout: concentration at 4 h (ng/mL)
Give bare numbers, in ng/mL.

Qu. Please give measured concentration at 4 h of the following entry: `COC(=O)/C=C\SC1=C(C(=O)[O-])N2C(=O)[C@@H](NC(=O)/C(=N\O)c3csc(N)n3)[C@H]2SC1.[Na+]`
Ans. 16900

Data credit: patent US4937332A
